# Kd per entry
- System: T1, rabbit IgG Fc (rabbit, biotin)
- T1 chain: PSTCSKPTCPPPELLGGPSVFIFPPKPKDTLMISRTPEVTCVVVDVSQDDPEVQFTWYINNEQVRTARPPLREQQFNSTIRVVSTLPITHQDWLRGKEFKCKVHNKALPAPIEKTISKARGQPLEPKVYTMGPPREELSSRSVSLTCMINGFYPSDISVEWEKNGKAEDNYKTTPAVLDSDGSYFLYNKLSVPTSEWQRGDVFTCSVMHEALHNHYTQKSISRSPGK
- Measurement notes: SPR

Reference set (2 entries):
Binder	Kd
GCQAHYWYRVWFCKQDSDCLAGCVCGPNGFCG [Ig-EET-1 (synthetic)]	> 20000 nM
VGECVRGRCSQISCCSQFGYCGKGPKYCG [Ig-AMP-3 (synthetic)]	~1850 nM

Kindly consider the entry below.
[in] What value of measured Kd is listed for VGECVRGRCSKISCCSQFGYCGKGPKYCG [Ig-AMP-1 (synthetic)] ?
[out] ~1410 nM
